B1: RHOBTB3 (parent)
chain: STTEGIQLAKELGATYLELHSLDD

Variants of: B1
Experiment: protein stability index of a GFP-peptide fusion (GPS, HEK-293T) (PSI 1-6); higher = more stable;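 note: lentivirally expressed fusions sorted by FACS into six bins by GFP to DsRed ratio, PSI derived from sequencing read proportions per bin multiplied by bin number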
Settings: c terminus: a fixed tail appended
Classify by protein stability index. Ranges: low group: < 3; middle group: ≥ 3 and < 4; high group: ≥ 4

{"MUTATION_SPEC": "A9H", "LABEL_VALUE": "high group"}
{"MUTATION_SPEC": "L19Y", "LABEL_VALUE": "high group"}
{"MUTATION_SPEC": "G13I", "LABEL_VALUE": "low group"}
{"MUTATION_SPEC": "T3Y", "LABEL_VALUE": "low group"}
{"MUTATION_SPEC": "E4C", "LABEL_VALUE": "low group"}
{"MUTATION_SPEC": "T15W", "LABEL_VALUE": "low group"}
{"MUTATION_SPEC": "T15I", "LABEL_VALUE": "low group"}
{"MUTATION_SPEC": "T2E", "LABEL_VALUE": "high group"}
{"MUTATION_SPEC": "G5K", "LABEL_VALUE": "middle group"}
{"MUTATION_SPEC": "D24G", "LABEL_VALUE": "low group"}
{"MUTATION_SPEC": "K10E", "LABEL_VALUE": "high group"}
{"MUTATION_SPEC": "T2M", "LABEL_VALUE": "low group"}
{"MUTATION_SPEC": "D23N", "LABEL_VALUE": "middle group"}
{"MUTATION_SPEC": "G13F", "LABEL_VALUE": "low group"}
{"MUTATION_SPEC": "H20A", "LABEL_VALUE": "low group"}
{"MUTATION_SPEC": "I6G", "LABEL_VALUE": "high group"}
{"MUTATION_SPEC": "T3L", "LABEL_VALUE": "low group"}
{"MUTATION_SPEC": "T15R", "LABEL_VALUE": "middle group"}
{"MUTATION_SPEC": "E11M", "LABEL_VALUE": "middle group"}
{"MUTATION_SPEC": "Y16R", "LABEL_VALUE": "high group"}
{"MUTATION_SPEC": "T2A", "LABEL_VALUE": "middle group"}
{"MUTATION_SPEC": "A9I", "LABEL_VALUE": "low group"}
{"MUTATION_SPEC": "L17T", "LABEL_VALUE": "high group"}
{"MUTATION_SPEC": "T3H", "LABEL_VALUE": "low group"}
{"MUTATION_SPEC": "T3C", "LABEL_VALUE": "low group"}
{"MUTATION_SPEC": "S1Q", "LABEL_VALUE": "high group"}
{"MUTATION_SPEC": "T2I", "LABEL_VALUE": "low group"}
{"MUTATION_SPEC": "T2K", "LABEL_VALUE": "middle group"}
{"MUTATION_SPEC": "A14N", "LABEL_VALUE": "middle group"}
{"MUTATION_SPEC": "L12D", "LABEL_VALUE": "high group"}
{"MUTATION_SPEC": "E4V", "LABEL_VALUE": "middle group"}
{"MUTATION_SPEC": "I6P", "LABEL_VALUE": "high group"}
{"MUTATION_SPEC": "Q7M", "LABEL_VALUE": "low group"}
{"MUTATION_SPEC": "A9D", "LABEL_VALUE": "high group"}
{"MUTATION_SPEC": "H20I", "LABEL_VALUE": "low group"}
{"MUTATION_SPEC": "I6Y", "LABEL_VALUE": "middle group"}
{"MUTATION_SPEC": "S1H", "LABEL_VALUE": "low group"}
{"MUTATION_SPEC": "S1E", "LABEL_VALUE": "high group"}
{"MUTATION_SPEC": "T3Q", "LABEL_VALUE": "low group"}
{"MUTATION_SPEC": "L19D", "LABEL_VALUE": "high group"}
{"MUTATION_SPEC": "L8W", "LABEL_VALUE": "middle group"}
{"MUTATION_SPEC": "T2D", "LABEL_VALUE": "high group"}
{"MUTATION_SPEC": "I6S", "LABEL_VALUE": "high group"}
{"MUTATION_SPEC": "S1A", "LABEL_VALUE": "middle group"}
{"MUTATION_SPEC": "L8V", "LABEL_VALUE": "high group"}
{"MUTATION_SPEC": "Q7I", "LABEL_VALUE": "middle group"}
{"MUTATION_SPEC": "L22V", "LABEL_VALUE": "high group"}
{"MUTATION_SPEC": "T3P", "LABEL_VALUE": "middle group"}
{"MUTATION_SPEC": "G13A", "LABEL_VALUE": "low group"}
{"MUTATION_SPEC": "T15M", "LABEL_VALUE": "middle group"}
{"MUTATION_SPEC": "L19A", "LABEL_VALUE": "high group"}
{"MUTATION_SPEC": "L19K", "LABEL_VALUE": "high group"}
{"MUTATION_SPEC": "E4I", "LABEL_VALUE": "low group"}
{"MUTATION_SPEC": "E11F", "LABEL_VALUE": "low group"}
{"MUTATION_SPEC": "D24W", "LABEL_VALUE": "low group"}
{"MUTATION_SPEC": "H20F", "LABEL_VALUE": "low group"}
{"MUTATION_SPEC": "L17D", "LABEL_VALUE": "high group"}
{"MUTATION_SPEC": "Y16H", "LABEL_VALUE": "high group"}
{"MUTATION_SPEC": "L22R", "LABEL_VALUE": "high group"}
{"MUTATION_SPEC": "E11V", "LABEL_VALUE": "low group"}
{"MUTATION_SPEC": "L8T", "LABEL_VALUE": "high group"}
{"MUTATION_SPEC": "D24P", "LABEL_VALUE": "middle group"}
{"MUTATION_SPEC": "H20N", "LABEL_VALUE": "high group"}
{"MUTATION_SPEC": "S21Q", "LABEL_VALUE": "middle group"}
{"MUTATION_SPEC": "L22H", "LABEL_VALUE": "high group"}
{"MUTATION_SPEC": "K10N", "LABEL_VALUE": "low group"}
{"MUTATION_SPEC": "T2V", "LABEL_VALUE": "low group"}
{"MUTATION_SPEC": "I6H", "LABEL_VALUE": "high group"}
{"MUTATION_SPEC": "A14T", "LABEL_VALUE": "high group"}
{"MUTATION_SPEC": "T15P", "LABEL_VALUE": "middle group"}
{"MUTATION_SPEC": "L17H", "LABEL_VALUE": "high group"}
{"MUTATION_SPEC": "E4K", "LABEL_VALUE": "high group"}
{"MUTATION_SPEC": "G5I", "LABEL_VALUE": "low group"}
{"MUTATION_SPEC": "A14D", "LABEL_VALUE": "low group"}
{"MUTATION_SPEC": "L8D", "LABEL_VALUE": "high group"}
{"MUTATION_SPEC": "E11H", "LABEL_VALUE": "high group"}
{"MUTATION_SPEC": "L12Q", "LABEL_VALUE": "high group"}
{"MUTATION_SPEC": "T3N", "LABEL_VALUE": "low group"}
{"MUTATION_SPEC": "I6N", "LABEL_VALUE": "high group"}
{"MUTATION_SPEC": "L8Q", "LABEL_VALUE": "high group"}
{"MUTATION_SPEC": "T15L", "LABEL_VALUE": "low group"}
{"MUTATION_SPEC": "T2Q", "LABEL_VALUE": "middle group"}
